# maps each entry to its melting point

// below: answered compounds
compound	recorded.measurement
O=C(O)C1(c2ccccc2)CCN(Cc2ccc3c(c2)Nc2nccnc2S3)CC1	> 297 °C
Cl.O[C@@H]1CN(Cc2ccc3c(c2)Nc2nccnc2S3)C[C@H]1O (relative stereo)	241 to 242 °C (dec.)

# input What measured melting point goes with "c1ccc(NCc2ccc3c(c2)Nc2nccnc2S3)nc1" ?
# output 208 to 212 °C

# input What measured melting point goes with "c1cncc(CNCc2ccc3c(c2)Nc2nccnc2S3)c1" ?
# output 104 to 106 °C

# input What measured melting point goes with "c1cnc2c(n1)Nc1cc(Cn3cnc4c(N5CCCCC5)ncnc43)ccc1S2" ?
# output 228 to 229 °C

# input What measured melting point goes with O=C(O)CC1CC(C2CCN(Cc3ccc4c(c3)Nc3nccnc3S4)CC2)C1 (centres unmarked) ?
# output 215 to 220 °C

# input What measured melting point goes with "CCOC(=O)C#Cc1ccc2c(c1)Nc1nccnc1N2C" ?
# output 232 to 235 °C

# input What measured melting point goes with CC(O)c1ncnc2c1ncn2Cc1ccc2c(c1)Nc1nccnc1S2 (centres unmarked) ?
# output 210 to 212 °C

# input What measured melting point goes with "O=C(O)C(=O)NC1CCN(Cc2ccc3c(c2)Nc2nccnc2S3)CC1" ?
# output 222 to 226 °C

# input What measured melting point goes with "Clc1nccn1Cc1ccc2c(c1)Nc1nccnc1S2" ?
# output 231 to 232 °C

# input What measured melting point goes with "CN(C)c1ncnc2ncn(Cc3ccc4c(c3)Nc3nccnc3S4)c12" ?
# output 265 to 268 °C

###

measured.endpoint: melting point

compound	measured.endpoint	recorded.measurement
CS(=O)(=O)N1CCN(Cc2ccc3c(c2)Nc2nccnc2S3)CC1	melting point	221 to 222 °C

# input What measured melting point goes with "CS(=O)(=O)N(Cc1ccc2c(c1)Nc1nccnc1S2)c1cccnc1" ?
# output 208 to 210 °C

# input What measured melting point goes with "CN(C)c1ncnc2c1[nH]c(=O)n2Cc1ccc2c(c1)Nc1nccnc1S2" ?
# output > 280 °C

# input What measured melting point goes with "O=C(O)COc1ccc(NCc2ccc3c(c2)Nc2nccnc2S3)cn1" ?
# output 170 °C

# input What measured melting point goes with CNc1ncnc2c1ncn2Cc1ccc2c(c1)Nc1nccnc1S2 [Example 1409] ?
# output 279 to 281 °C

# input What measured melting point goes with "O=C(O)Cc1cccc(C2CCN(Cc3ccc4c(c3)Nc3nccnc3S4)CC2)c1" ?
# output 130 to 132 °C

# input What measured melting point goes with "c1ccc(CN2c3ccccc3Nc3nccnc32)cc1" ?
# output 194 to 196 °C

# input What measured melting point goes with "CN(C)c1c(N2CCN(Cc3ccc4c(c3)Nc3nccnc3S4)CC2)c(=O)c1=O" ?
# output 296 to 300 °C (dec.)

# input What measured melting point goes with "c1ccc(CN2CCN(c3ncnc4c3ncn4Cc3ccc4c(c3)Nc3nccnc3S4)CC2)cc1" ?
# output 213 to 214 °C

# input What measured melting point goes with "ClCc1ccc2c(c1)Nc1nccnc1S2" ?
# output 161 to 162 °C

# input What measured melting point goes with O=C(O)CC1C2CN(Cc3ccc4c(c3)Nc3nccnc3S4)CC1C21CCC1 (stereo not drawn) [Example 86] ?
# output 90 to 92 °C

# input What measured melting point goes with "C/C(=C\C(=O)O)C1CCN(Cc2ccc3c(c2)Nc2nccnc2S3)CC1" ?
# output 207 to 209 °C

# input What measured melting point goes with "Cc1nccn1Cc1ccc2c(c1)Nc1nccnc1S2" ?
# output 244 to 246 °C

# input What measured melting point goes with FC(c1cccnc1)c1ccc2c(c1)Nc1nccnc1S2 (stereo not drawn) ?
# output 157 to 159 °C

# input What measured melting point goes with "CC(C)(O)c1ncnc2ncn(Cc3ccc4c(c3)Nc3nccnc3S4)c12" ?
# output 268 to 271 °C

# input What measured melting point goes with "CC(=O)NC1CCN(Cc2ccc3c(c2)Nc2nccnc2S3)CC1" ?
# output 212 to 214 °C

###

# maps each entry to its melting point

molecule	measured.endpoint	recorded.measurement
O=C(O)CC1CCC2(CC1)CN(Cc1ccc3c(c1)Nc1nccnc1S3)C2	melting point	145 °C (dec.)
Nc1ncccc1NCc1ccc2c(c1)Nc1nccnc1S2	melting point	225 to 228 °C
CC(C(=O)O)=C1CCN(Cc2ccc3c(c2)Nc2nccnc2S3)CC1	melting point	125 to 127 °C
O=C(O)CC1CC2CN(Cc3ccc4c(c3)Nc3nccnc3S4)CC2C1 (centres unmarked) [714]	melting point	110 to 115 °C
CCOC(=O)COc1ccc(NCc2ccc3c(c2)Nc2nccnc2S3)cn1	melting point	230 to 235 °C
CCOC1(CC(=O)O)CC2(CCN(Cc3ccc4c(c3)Nc3nccnc3S4)CC2)C1	melting point	226 to 227 °C
c1ccc(CCNCc2ccc3c(c2)Nc2nccnc2S3)nc1	melting point	179 to 182 °C
CC1CC(C)CN(c2ncnc3c2ncn3Cc2ccc3c(c2)Nc2nccnc2S3)C1 (centres unmarked)	melting point	237 to 238 °C
CNS(=O)(=O)NCC1CN(Cc2ccc3c(c2)Nc2nccnc2S3)C1	melting point	173 to 176 °C
O=C(O)CC1(O)C2CCCCCC1CN(Cc1ccc3c(c1)Nc1nccnc1S3)C2 (centres unmarked)	melting point	217 to 218 °C (dec.)

# input What measured melting point goes with COc1ccc(C(O)c2ccc3c(c2)Nc2nccnc2S3)cc1 (centres unmarked) ?
# output 84 to 86 °C

# input What measured melting point goes with CC1CN(Cc2ccc3c(c2)Nc2nccnc2S3)CC(C)C1CC(=O)O (centres unmarked) ?
# output 200 °C (dec.)

# input What measured melting point goes with "Clc1ccc(NCc2ccc3c(c2)Nc2nccnc2S3)nc1" ?
# output 200 to 203 °C

# input What measured melting point goes with "c1cnc2c(n1)Nc1cc(Cn3cnc4ncnc(N5CCOCC5)c43)ccc1S2" ?
# output 269 to 273 °C

# input What measured melting point goes with "CN(C)c1nc(N(C)C)c2ncn(Cc3ccc4c(c3)Nc3nccnc3S4)c2n1" ?
# output 239 to 240 °C

# input What measured melting point goes with OCCC12CCN(Cc3ccc4c(c3)Nc3nccnc3S4)CC1C2 (centres unmarked) ?
# output 57 to 60 °C

# input What measured melting point goes with "N#CN=C(Cc1ccc2c(c1)Nc1nccnc1S2)NCc1ccc(S(N)(=O)=O)cc1" ?
# output 241 to 245 °C

# input What measured melting point goes with "OCCc1ccc(NCc2ccc3c(c2)Nc2nccnc2S3)cn1" ?
# output 138 to 142 °C

# input What measured melting point goes with "CS(=O)(=O)N(CC(=O)O)C1CCN(Cc2ccc3c(c2)Nc2nccnc2S3)CC1" ?
# output 210 to 215 °C

# input What measured melting point goes with "CC(=O)NCC1CCN(Cc2ccc3c(c2)Nc2nccnc2S3)CC1" ?
# output 168 to 170 °C

###

measured.endpoint: melting point

compound	recorded.measurement
O=C(O)c1ccc(NCc2ccc3c(c2)Nc2nccnc2S3)nc1	215 to 220 °C
c1cnc2ncn(Cc3ccc4c(c3)Nc3nccnc3S4)c2c1	265 °C (dec.)
CN1c2ccc(I)cc2Nc2nccnc21	> 275 °C
c1cnc2c(n1)Nc1cc(Cn3cnc4cncnc43)ccc1S2	264 to 265 °C
Cl.Oc1ccc2c(c1)Nc1nccnc1N2	> 275 °C

# input What measured melting point goes with "CN/C(=C\[N+](=O)[O-])NCc1ccc2c(c1)Nc1nccnc1S2" ?
# output > 265 °C (dec.)

# input What measured melting point goes with OC(c1ccc(Br)nc1)c1ccc2c(c1)Nc1nccnc1S2 (centres unmarked) ?
# output 221 to 223 °C

###

# maps each entry to its melting point

// below: answered compounds
compound	recorded.measurement
CN1c2ccc(C(=O)c3ccccn3)cc2Nc2nccnc21	261 to 262 °C
CC(C)NC(Cc1ccc2c(c1)Nc1nccnc1S2)=NC#N	266 to 268 °C

# input What measured melting point goes with "OCc1cc(NCc2ccc3c(c2)Nc2nccnc2S3)ccn1" ?
# output 156 to 160 °C

# input What measured melting point goes with OC(c1cncnc1)c1ccc2c(c1)Nc1nccnc1S2 (centres unmarked) ?
# output 218 to 221 °C

# input What measured melting point goes with "Cl.c1ccc(CN2CCCN=C2Cc2ccc3c(c2)Nc2nccnc2S3)cc1" ?
# output 153 to 155 °C (dec.)

###

# maps each entry to its melting point

// below: answered compounds
compound	melting point
N/C(Cc1ccc2c(c1)Nc1nccnc1S2)=N\NS(=O)(=O)c1ccccc1	226 to 227 °C
O=c1c2ccccc2[nH]n1Cc1ccc2c(c1)Nc1nccnc1S2	> 275 °C
C(=C\c1ccc2c(c1)Nc1nccnc1S2)/c1ccncc1	> 275 °C
CC1CC2CN(Cc3ccc4c(c3)Nc3nccnc3S4)CC(C1)C2CC(=O)O (stereo not drawn)	142 to 146 °C
Cc1ncnc2c1ncn2Cc1ccc2c(c1)Nc1nccnc1S2	276 to 278 °C
CC(=O)NCc1ccc2c(c1)Nc1nccnc1N2C	247 to 249 °C

# input What measured melting point goes with "CC(C)(C)OC(=O)CN1c2ccccc2Nc2nccnc21" ?
# output 199 to 201 °C
